ASSAY METRIC: logD
# output: bare number, no unit

Below, each entry is followed by its recorded logD result.
MOLECULE: CC(C)[C@H](Nc1ncnc2[nH]c(-c3ccc4cncn4c3)cc12)c1ccc2c(c1)S(=O)(=O)CCC2 (racemic)
logD: 4
//
MOLECULE: NCc1cccc(NC(=O)[C@@H](NC(=O)OCc2ccccc2)c2ccc(OCc3ccccc3)cc2)c1
logD: 3.2
//
MOLECULE: Cn1ncc(-c2cc3c(N[C@H](c4ccc5c(n4)OCCO5)C(C)(C)C)ncnc3[nH]2)c1C#N (racemic)
logD: 2.7

# evaluate next
Q: Kindly indicate its recorded logD. Item: NCc1cccc(NC(=O)c2cccn3cc(CN4CCCC4)nc23)c1
A: 0.2

====

# CONDITION LABEL: mdck_mdr1
Item-by-item account of Papp
Note: unit ×10⁻⁶ cm/s is implicit; provide only the numeric part.

The cases that follow already have their Papp on record.
MOLECULE: O=C(Nc1cc2c(c(C3=CCS(=O)(=O)CC3)c1)CNC2)c1cc(F)cc2[nH]ncc12
READOUT UNITS: ×10⁻⁶ cm/s
Papp: 1.3

MOLECULE: NCc1cc(C(=O)O)cc([C@@H]2C[C@H]2c2cc(Cl)cc(NC(=O)OCc3ccccc3)c2)c1 (racemic)
READOUT UNITS: ×10⁻⁶ cm/s
Papp: 0.819

MOLECULE: CC(C)[C@H](Nc1ncnc2[nH]c(-c3cnn(CC(N)=O)c3)cc12)c1ccc2c(n1)OCCO2 (racemic)
READOUT UNITS: ×10⁻⁶ cm/s
Papp: 2.46

MOLECULE: COCCNC(=O)c1c[nH]c2ncnc(N[C@H](c3ccc4c(c3)S(=O)(=O)CCC4)C(C)C)c12 (racemic)
READOUT UNITS: ×10⁻⁶ cm/s
Papp: 1.62

MOLECULE: O=C(Nc1ccc2c(c1)CNC2)c1cc(Cl)cc2ccncc12
READOUT UNITS: ×10⁻⁶ cm/s
Papp: 3.42

Q: Fill in Papp for record CNC(=O)Cn1cc(-c2cc3c(N[C@H](c4ccc5c(c4)S(=O)(=O)CCC5)C(C)C)ncnc3[nH]2)cn1 (racemic)
A: 0.47

Q: State, in one line, measured Papp of CC(C)[C@H](Nc1ncnc2[nH]c(-c3cnn(C)c3)cc12)c1ccc2c(c1)S(=O)(=O)NCC2 (racemic)
A: 1.58

Q: Specify reported Papp for the molecule shown: CNC(=O)[C@H](Nc1cc(CN)cc(-c2nn[nH]n2)c1)c1cc(Cl)cc(C2CC2)c1 (racemic)
A: 0.302

Q: For Cn1ncc(-c2cc3c(N[C@H](c4ccc5c(n4)OCCO5)C(C)(C)C)ncnc3[nH]2)c1C#N (racemic) , write its Papp.
A: 13.5

Q: Fill in Papp for record NCc1cccc(NC(=O)C[C@H](NC(=O)OCc2ccccc2)c2ccc(OCc3ccccc3)cc2)c1 (racemic)
A: 1.04

Q: Fill in reported Papp for this entry: O=C(NCCCF)[C@H](Nc1ccc2c(c1)CNC2)c1cc(Cl)cc(C2CC2)c1 (racemic)
A: 0.7

====

We begin with a simple list: items and their reported solubility kinetic.
A number alone suffices; assume µM.

See these solved cases before continuing.
COMPOUND: CC(C)[C@H](Nc1ncnc2[nH]c(-c3cnn(C)c3)cc12)c1ccc2c(c1)S(=O)(=O)CCC2 (racemic)
solubility kinetic, µM: 94

COMPOUND: O=C(Nc1cc2c(c(C3=CCS(=O)(=O)CC3)c1)CNC2)c1cc(F)cc2[nH]ncc12
solubility kinetic, µM: 141

COMPOUND: CNC(=O)[C@H](Nc1cc(CN)cc(C(=O)O)c1)c1cc(Cl)cc(C2CC2)c1 (racemic)
solubility kinetic, µM: 335

// below: solubility kinetic requested for another compound
Q: Input O=C(Nc1cc(Cl)cc(-c2ccc3[nH]c(C(=O)O)cc3c2)c1)OCc1ccccc1 , output reported solubility kinetic.
A: 356

====

# CONDITION LABEL: mdck_mdr1
ASSAY METRIC: Papp (×10⁻⁶ cm/s)
Numeric only. Scale: ×10⁻⁶ cm/s

Solved entries:
COMPOUND: C=CC[C@H](Nc1cccc(-c2nn[nH]n2)c1)c1cc(Cl)cc(NC(=O)OCc2ccccc2)c1 (racemic)
ASSAY METRIC: Papp
MEASURED: 1.24
//
COMPOUND: CNC(=O)c1cc(Cl)c(F)cc1NS(=O)(=O)c1ccc(Oc2ccccc2Cl)cc1
ASSAY METRIC: Papp
MEASURED: 6.11
//
COMPOUND: COc1ccc([C@H](Cc2nnn[nH]2)NC(=O)c2ncnc3[nH]ccc23)cc1 (racemic)
ASSAY METRIC: Papp
MEASURED: 1.39
//
COMPOUND: CC(C)[C@H](Nc1ncnc2[nH]c(-c3cncc(S(C)(=O)=O)c3)cc12)c1ccc2c(c1)S(=O)(=O)CCC2 (racemic)
ASSAY METRIC: Papp
MEASURED: 0.491
//
COMPOUND: CC(C)[C@H](Nc1ncnc2[nH]c(-c3cnn(C)c3)cc12)c1ccc2c(c1)S(=O)(=O)CCC2 (racemic)
ASSAY METRIC: Papp
MEASURED: 1.73
//
COMPOUND: COc1cc(Cl)cc([C@H](Nc2ccc3c(c2)CNC3)C(=O)NCC(F)F)c1 (racemic)
ASSAY METRIC: Papp
MEASURED: 0.7
//
COMPOUND: O=C(Nc1cc(Cl)cc(C(=O)Nc2n[nH]c3c2CNC3)c1)OCc1ccccc1
ASSAY METRIC: Papp
MEASURED: 1.44

Q: Give recorded Papp. CCc1cc(C(=O)Nc2cccc(CN)c2)sc1-c1ccc(Cl)cc1
A: 0.995

====

Catalogue of log10 of solubility kinetic values
Recall that a logarithmic scale is used here: each number is log10 of solubility kinetic in µM.

Reference set (2 entries):
COMPOUND: O=C(NCC(F)F)[C@H](Nc1ccc2c(c1)CNC2)c1cc(Cl)cc(C2CC2)c1 (racemic)
log10 of solubility kinetic: 2.56
//
COMPOUND: O=C(O)c1cc(Cl)ccc1S(=O)(=O)NC1CCN(c2nc(C3CC3)cc(C(F)(F)F)n2)CC1
log10 of solubility kinetic: 2.58

Q: Supply log10 of solubility kinetic value. Item: O=C(/C=C/c1ccccc1)C(=O)N1CCN(CCc2ccccc2)CC1
A: 2.38

Q: Specify log10 of solubility kinetic for CC(C)[C@H](Nc1ncnc2[nH]c(-c3cnn(CC(N)=O)c3)cc12)c1ccc2c(c1)NC(=O)CO2 (racemic) and stop.
A: 1.40

Q: Provide log10 of solubility kinetic value for the following compound: NCCc1ccc(NC(=O)c2cc(Cl)cc(NC(=O)OCc3ccccc3)c2)cc1
A: 1.94

Q: Output measured log10 of solubility kinetic for this item: COc1ccc(C(=O)Nc2cccc(/C=C3/C(=O)NC(=O)c4ccccc43)c2)cc1
A: 1.36

Q: Name the recorded log10 of solubility kinetic of the item CNC(=O)c1cc2c(N[C@H](c3ccc4c(c3)OCCO4)C(C)C)ncnc2[nH]1 (racemic) in your answer.
A: 2.58

Q: For the compound c1ccc2sc(C3CCN(Cc4c[nH]c5ccccc45)CC3)nc2c1 , give its reported log10 of solubility kinetic.
A: 2.08

Q: Quick one: give measured log10 of solubility kinetic for C=CC[C@H]1NCc2cc(NC(=O)c3cc(F)cc4[nH]ncc34)ccc21 (racemic)
A: 2.55

Q: Write down log10 of solubility kinetic measured for item CC(C)[C@H](Nc1ncnc2[nH]c(-c3ccc4nnn(C)c4c3)cc12)c1ccc2c(c1)S(=O)(=O)CCC2 (racemic)
A: 0.78

Q: Please supply the value of reported log10 of solubility kinetic for the item O=C(Nc1ccc2c(c1)CNC2)c1cc(Cl)cc2ccncc12
A: 2.26

Q: Indicate the recorded log10 of solubility kinetic value for this compound: Cn1ncc(-c2cc3c(N[C@H](c4ccc5c(n4)OCCO5)C(C)(C)C)ncnc3[nH]2)c1C#N (racemic)
A: 1.38

Q: Find the measured log10 of solubility kinetic of CC(C)[C@H](Nc1ncnc2[nH]c(-c3cncc(S(C)(=O)=O)c3)cc12)c1ccc2c(c1)S(=O)(=O)CCC2 (racemic) and report it.
A: 1.49

Q: State, in one line, measured log10 of solubility kinetic of CO[C@H]1C[C@H](n2ncc3c(C(=O)Nc4ccc5c(c4)CNC5)cc(Cl)cc32)C1
A: 2.53

Q: Tell me log10 of solubility kinetic reported for Cn1ncc(-c2cc3c(N[C@H](c4ccc5c(n4)OCCO5)C(C)(C)C)ncnc3[nH]2)c1C#N (single isomer, unassigned)
A: 1.38

====

Each record here notes measured solubility kinetic.
Report as a plain number; the unit µM is understood.

Some compounds with recorded solubility kinetic:
COMPOUND: O=C(Nc1ccccc1)Nc1ccc(C(=O)NC2c3cccc(O)c3CC2C(=O)O)cc1 (stereo not drawn)
READOUT UNITS: µM
solubility kinetic: 319
--
COMPOUND: Cn1cc2c(C(=O)Nc3ccc4c(c3)CNC4)cc(F)cc2n1
READOUT UNITS: µM
solubility kinetic: 309
--
COMPOUND: Cc1c(C(=O)Nc2cc(-c3cccnc3)ccn2)cc(C2CC2)n1C
READOUT UNITS: µM
solubility kinetic: 176
--
COMPOUND: CNC(=O)c1cc(Cl)c(F)cc1NS(=O)(=O)c1ccc(Oc2ccccc2Cl)cc1
READOUT UNITS: µM
solubility kinetic: 49
--
COMPOUND: CCNC(=O)c1cc2c(N[C@H](c3ccc4c(c3)S(=O)(=O)CCO4)C(C)C)ncnc2[nH]1 (racemic)
READOUT UNITS: µM
solubility kinetic: 328

Q: Given CC(C)NC(=O)[C@H](Nc1ccc2c(c1)CNC2)c1cc(Cl)cc2[nH]ncc12 (racemic) , respond with its solubility kinetic.
A: 311

Q: Using known records, supply solubility kinetic for CNCc1cc(-c2cc3c(N[C@H](c4ccc5c(c4)S(=O)(=O)CCC5)C(C)C)ncnc3[nH]2)co1 (racemic)
A: 321

Q: Return solubility kinetic for the following compound: O=C1Cc2cc(C(=O)Nc3ccc4c(c3)CNC4)ccc2N1
A: 136

Q: Specify reported solubility kinetic for the compound shown: N#Cc1cc2c(cc1NC(=O)c1cc(F)cc3[nH]ncc13)CNC2
A: 193

Q: Consider the compound COc1cc(C#N)cc([C@H](Nc2ccc3c(c2)CNC3)C(=O)NCC(F)F)c1 (racemic) and give its recorded solubility kinetic.
A: 381

Q: Fill in solubility kinetic for record COc1ccc([C@H](Cc2nnn[nH]2)NC(=O)c2ncnc3[nH]ccc23)cc1 (racemic)
A: 395

Q: For CC(C)[C@H](Nc1ncnc2[nH]cc(C(=O)NC3CC3)c12)c1ccc2c(c1)S(=O)(=O)CCC2 (racemic) , write its solubility kinetic.
A: 257

Q: Return solubility kinetic (reported value) for this compound: O=C(Nc1cc2c(cc1Br)CNC2)c1cc(F)cc2[nH]ncc12
A: 47

Q: Tell me solubility kinetic reported for COc1ccc2c(c1)CCN(c1ncnc3[nH]ccc13)[C@H]2C(C)C (racemic)
A: 14

Q: Return solubility kinetic (reported value) for this compound: CC(C)CNC(=O)c1cc(Cl)c(F)cc1NS(=O)(=O)c1ccc(Oc2ccccc2Cl)cc1
A: 4

Q: Quote solubility kinetic reported for CC(C)[C@H](Nc1ncnc2[nH]ccc12)c1ccc2c(c1)S(=O)(=O)CCO2 (racemic) please.
A: 372

Q: Identify measured solubility kinetic associated with NCc1cccc(NC(=O)c2cc(Cl)cc(CN)c2)c1
A: 375

Q: Identify the reported solubility kinetic for the following entry. CC(C)[C@H](Nc1ncnc2[nH]c(-c3cnn(C)c3C#N)cc12)c1ccc2c(n1)NC(=O)CO2 (racemic)
A: 29

Q: Retrieve solubility kinetic measured for N#CCCNC(=O)[C@H](Nc1ccc2c(c1)CNC2)c1cc(Cl)cc(C2CC2)c1 (racemic) and print it.
A: 374

// data source = the ASAP Discovery antiviral challenge data (2025)
